target system: RET-V804M (Homo sapiens, UniProt P07949, V804M)
Sequence (P07949 29-1114 V804M): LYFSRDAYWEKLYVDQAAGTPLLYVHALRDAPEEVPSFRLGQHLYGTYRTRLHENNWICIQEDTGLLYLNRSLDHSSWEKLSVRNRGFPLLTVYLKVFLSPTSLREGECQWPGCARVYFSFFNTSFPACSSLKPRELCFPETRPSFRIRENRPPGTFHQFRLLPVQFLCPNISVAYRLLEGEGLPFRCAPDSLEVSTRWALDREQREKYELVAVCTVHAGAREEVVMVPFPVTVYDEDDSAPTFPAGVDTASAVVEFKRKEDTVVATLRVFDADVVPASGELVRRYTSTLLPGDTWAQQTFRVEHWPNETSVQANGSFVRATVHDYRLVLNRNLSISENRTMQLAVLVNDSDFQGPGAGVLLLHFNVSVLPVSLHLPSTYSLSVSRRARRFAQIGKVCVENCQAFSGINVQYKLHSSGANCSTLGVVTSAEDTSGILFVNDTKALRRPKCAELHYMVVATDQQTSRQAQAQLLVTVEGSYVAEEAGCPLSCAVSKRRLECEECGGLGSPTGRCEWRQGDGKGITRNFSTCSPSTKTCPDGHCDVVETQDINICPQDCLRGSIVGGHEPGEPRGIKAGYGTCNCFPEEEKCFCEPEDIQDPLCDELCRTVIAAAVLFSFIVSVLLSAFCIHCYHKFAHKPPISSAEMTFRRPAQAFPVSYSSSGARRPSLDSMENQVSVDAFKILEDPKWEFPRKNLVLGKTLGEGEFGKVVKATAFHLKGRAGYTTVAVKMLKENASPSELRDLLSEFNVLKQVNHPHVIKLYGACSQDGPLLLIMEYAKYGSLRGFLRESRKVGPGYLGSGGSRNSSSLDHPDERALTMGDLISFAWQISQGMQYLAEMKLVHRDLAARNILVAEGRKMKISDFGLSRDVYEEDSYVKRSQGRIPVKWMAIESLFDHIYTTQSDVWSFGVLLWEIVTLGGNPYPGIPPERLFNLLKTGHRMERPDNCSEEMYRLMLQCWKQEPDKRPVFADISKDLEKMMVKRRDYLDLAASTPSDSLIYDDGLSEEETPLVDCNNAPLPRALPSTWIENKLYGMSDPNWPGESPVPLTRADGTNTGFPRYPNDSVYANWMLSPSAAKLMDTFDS
test method notes: RET inhibition experiment (HTRF KinEASE-TK kit), mutant RET-V804M
Type: biochemical
test parameters: 10 nM (Table 2); read-out: Inhibition rate on RET-V804M
Reported inhibition at 0.01 µM values follow for various compounds

compound	inhibition at 0.01 µM (%)
Cc1cc(Nc2cc(C)[nH]n2)nc(-c2ccc(N3CC4CC(C3)N4Cc3ccc(-n4cc(F)cn4)cc3)nc2)n1 [Compound 91]	70
CCOc1ccc(CN2C3CC2CN(c2ccc(-c4nc(C)cc(Nc5cc(C)[nH]n5)n4)cn2)C3)cc1 [Compound 41]	64
Cc1cc(Nc2cc(C)[nH]n2)nc(-c2ccc(N3CC4CC(C3)N4Cc3ccc(-c4cccn4C)nc3)nc2)n1 [Compound 128]	48
Cc1cc(Nc2cc(C)[nH]n2)nc(-c2ccc(N3CC4CC(C3)N4Cc3ccc(Cl)cc3)nc2)n1 [Compound 82]	43
CCc1ccnn1-c1ccc(CN2C3CC2CN(c2ccc(-c4nc(C)cc(Nc5cc(C)[nH]n5)n4)cn2)C3)cn1 [Compound 46]	92
Cc1cc(Nc2cc(C)[nH]n2)nc(-c2ccc(N3CC4CC(C3)N4Cc3ccc(-n4ncc(Cl)c4C)nc3)nc2)n1 [Compound 28′]	34
Cc1cc(Nc2cc(C)[nH]n2)nc(-c2ccc(N3CC4CC(C3)N4Cc3ccc(-c4cscn4)nc3)nc2)n1 [Compound 129]	84
